Target Or System: furin, P09958;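 further: purified furin at 1:10 enzyme:substrate in 50 mM HEPES pH 7.5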
Sequence (P09958 whole entry): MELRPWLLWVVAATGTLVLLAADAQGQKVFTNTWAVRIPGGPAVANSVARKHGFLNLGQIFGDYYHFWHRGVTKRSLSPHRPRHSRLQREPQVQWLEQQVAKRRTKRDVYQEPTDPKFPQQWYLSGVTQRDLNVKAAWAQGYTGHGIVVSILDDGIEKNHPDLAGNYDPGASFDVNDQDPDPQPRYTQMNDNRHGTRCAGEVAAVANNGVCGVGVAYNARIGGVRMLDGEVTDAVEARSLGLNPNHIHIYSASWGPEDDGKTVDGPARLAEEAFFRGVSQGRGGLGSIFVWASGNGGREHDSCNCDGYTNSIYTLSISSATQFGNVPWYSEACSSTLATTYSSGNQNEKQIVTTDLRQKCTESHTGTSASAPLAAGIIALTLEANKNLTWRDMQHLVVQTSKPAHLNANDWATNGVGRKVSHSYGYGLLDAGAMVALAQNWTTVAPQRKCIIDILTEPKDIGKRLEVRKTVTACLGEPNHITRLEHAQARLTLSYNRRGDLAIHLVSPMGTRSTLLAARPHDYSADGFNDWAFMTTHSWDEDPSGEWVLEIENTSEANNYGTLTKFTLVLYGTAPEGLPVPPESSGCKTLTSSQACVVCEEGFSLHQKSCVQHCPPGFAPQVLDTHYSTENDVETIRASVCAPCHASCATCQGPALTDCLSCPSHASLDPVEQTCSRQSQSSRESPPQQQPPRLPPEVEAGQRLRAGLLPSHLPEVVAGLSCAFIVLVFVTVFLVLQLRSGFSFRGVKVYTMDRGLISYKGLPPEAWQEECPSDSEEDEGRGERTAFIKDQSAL
Test Protocol: furin cleavage Z-score vs untreated control; higher = more cleavage, active = 3.5 or more, inactive = 1 or less, 8 variable residues between constant flanks
Experimental Setup: 7.5 min
The list shows a part of the results. The hit rate among all sequences tested is not known here.
Entry note: the call must match one of active, inactive

Task item: Which outcome was assigned to CAVVCCSMGYAGNASASA [HC2076] in this test?
Reply: inactive

Task item: Which outcome was assigned to CATTRVRRRSAGNASASA [FS-1100] in this test?
Reply: active

Task item: Which outcome was assigned to CAKQSGENLPAGNASASA [HC949] in this test?
Reply: inactive

Task item: Which outcome was assigned to CASTPCSAHKAGNASASA [HC2574] in this test?
Reply: inactive

Task item: Which outcome was assigned to CAPRTCRNMWAGNASASA [HC1185] in this test?
Reply: inactive

Task item: Which outcome was assigned to CARTKRYFAKAGNASASA [FS-1976] in this test?
Reply: inactive
